# experimental details: qHTS of pediatric cancer cell lines to identify multiple opportunities for drug repurposing: Confirmatory screen for MG 63 (6-TG R) cells (AID 1347119); further: nearly all actives have a fitted effect of over 55% in size; further: potency means the concentration at half of the fitted maximal effect
# measurement context: MG-63 (6-TG resistant) osteosarcoma viability; series mostly up to 45.9 µM
# Procedure: Drug repurposing or repositioning has been offered as a strategy for drug development in oncology programs. […] [1] Shen, M et al. Quantitative high-throughput phenotypic screening of pediatric cancer cell lines identifies multiple opportunities for drug repurposing. […] Cells were assayed in growth media at a density of 500-1,000 cells/well. […] After a 15 min incubation at room temperature, samples were analyzed for luminescence intensity using a ViewLux High-throughput CCD imager equipped with clear filters.
Results filed as inconclusive are left out. Calls of active or inactive are those of the source. The call rests on the fitted dose curve; in most records, active means well fitted cell-killing curve with a large enough effect; inconclusive means small, poorly fitted or top-dose-only effect, or effect the other way; inactive means no such curve, though single readings can be large or run the other way.

compound	Potency
Cc1nc(N)nc(N)c1-c1ccc(Cl)c(Cl)c1	inactive
CO[C@@H]1[C@@H](OC)[C@H](C)[C@@](O)(CC(=O)O)O[C@H]1[C@H](C)[C@H]1O[C@@]2(CC[C@@](C)([C@H]3CC[C@@](C)([C@@H]4O[C@@H]([C@H]5O[C@](C)(O)[C@H](C)C[C@@H]5C)C[C@@H]4OC4C[C@H](OC)[C@@H](OC)[C@H](C)O4)O3)O2)C[C@H](O)[C@H]1C (some centres undefined)	522 nM (active)
C[C@]12CCC(=O)C=C1CC[C@@H]1[C@@H]2[C@@H](O)C[C@@]2(C)[C@H]1CC[C@]2(O)C(=O)COC(=O)CCC(=O)O	inactive
CC(C)(C)CC(=O)OCC(=O)[C@@]1(O)CC[C@H]2[C@@H]3CCC4=CC(=O)C=C[C@]4(C)[C@H]3[C@@H](O)C[C@@]21C	inactive

----------
# System: HeLa
# experimental details: Primary qHTS to identify gynecologic anti-cancer compounds using libraries of approved drugs and bioactive compounds (AID 1345084); further: nearly all actives have a fitted effect of over 55% in size; further: potency means the concentration at half of the fitted maximal effect
# measurement context: Gynecologic cancer cell panel viability, ATPlite luminescence, 48 h; series mostly up to 57.5 µM
Results filed as inconclusive are left out. Active and inactive are the calls of the source. Calls follow the shape of the dose curve; as a rule, active = well fitted cell-killing curve with a large enough effect; inconclusive = small, poorly fitted or top-dose-only effect, or effect the other way; inactive = flat fitted curve, though single readings scatter.
measurement type: Potency

In [3]: df
Out[3]:
                              line_notation            result
0                        C1N2CN3CN1CN(C2)C3          inactive
1  O=C(Nc1ccc(Cl)cc1)Nc1ccc(Cl)c(C(F)(F)F)c1  14.1 µM (active)
2                CN(C)C(=O)CNC(=O)Cc1ccccc1          inactive
3  CC(=O)OC/C=C(C)/C=C/C=C(C)/C=C/C1=C(C)CCCC1(C)C          inactive

Asked: Form entry - test system: HeLa; read-out: Potency; compound: `O=C(O)CCCC[C@@H]1SC[C@@H]2NC(=O)N[C@@H]21`
Given back: inactive

----------
# experimental details: qHTS of pediatric cancer cell lines to identify multiple opportunities for drug repurposing: Primary screen for Saos-2 cells (AID 1347097); further: nearly all actives have a fitted effect of over 40% in size
# measurement context: Saos-2 viability, CellTiter-Glo ATP luminescence, 48 h; series mostly up to 46 µM
Records with an inconclusive call do not appear. Active and inactive are the calls of the source. The call rests on the fitted dose curve; in most records, active means well fitted cell-killing curve with a large enough effect; inconclusive means small, poorly fitted or top-dose-only effect; inactive means no such curve, though single readings can be large or run the other way.
Your response should consist of one outcome taken from active, inactive

Before answering, review these 4 worked examples.
>>> print(df.to_string())
                                   compound     group
0  CC(=O)/C=C/C=C1/C2CCC(C2)C1(C)C (configuration not stated)  inactive
1  CC(C)C[C@@H]1[C@H](c2ccccc2)OC(=O)N1CCCN1CCCCCC1  inactive
2  C[N+]1(CC2COC(c3ccccc3)(c3ccccc3)O2)CCCCC1 (configuration not stated)  inactive
3  CC1c2ccccc2CN1NC(=O)c1ccc(Cl)c(S(N)(=O)=O)c1 (configuration not stated)  inactive

Asked: Dear colleague, could you share the recorded outcome for `CC(C)(C)c1ccc(O)c(O)c1` when you have a moment?
Given back: active

Asked: Which result was noted for this compound in the test: `CCOC(=O)O[C@]1(C(=O)OCCl)CC[C@H]2[C@@H]3CCC4=CC(=O)C=C[C@]4(C)[C@H]3[C@@H](O)C[C@@]21C`
Given back: inactive

Asked: What did this assay record as the result for `CC(C)(C)c1ccc(C(=O)CCCCl)cc1` ?
Given back: inactive

----------
# System: Hek293T
# experimental details: Primary qHTS to identify gynecologic anti-cancer compounds using libraries of approved drugs and bioactive compounds (AID 1345084); further: nearly all actives have a fitted effect of over 55% in size
# measurement context: Gynecologic cancer cell panel viability, ATPlite luminescence, 48 h, control line for the selectivity index; series mostly up to 57.5 µM
Records with an inconclusive call do not appear. Active and inactive are the calls of the source. Calls follow the shape of the dose curve; as a rule, active = well fitted cell-killing curve with a large enough effect; inconclusive = small, poorly fitted or top-dose-only effect, or effect the other way; inactive = flat fitted curve, though single readings scatter.
measurement type: outcome

In [3]: df
Out[3]:
                                   compound    result
0                      CCOC(=O)C(=O)CCCCCCl  inactive
1  CO/N=C(/C(=O)N[C@@H]1C(=O)N2C(C(=O)O)=C(Cn3nnc(C)n3)CS[C@H]12)c1csc(N)n1  inactive
2  COc1ccc(-n2nc(CCC(=O)N(C)O)cc2-c2ccc(Cl)cc2)cc1  inactive
3                CCOc1c(N2CCOCC2)cnn(C)c1=O  inactive
4         Nc1ccc([N+](=O)[O-])c(C(F)(F)F)c1  inactive
5  COC(=O)[C@H]1[C@H]2C[C@@H]3c4[nH]c5cc(OC)ccc5c4CCN3C[C@H]2C[C@@H](OC(=O)/C=C/c2ccc(O)c(OC)c2)[C@@H]1OC  inactive
6                       CC(=O)c1cc2ccccc2s1  inactive
7  Cc1ccc(C(=O)Oc2ccc(C(O)CNC(C)(C)C)cc2OC(=O)c2ccc(C)cc2)cc1 (centres undefined)  inactive
8  Cc1ccc(CCn2c3c(c4cc(Cl)ccc42)CN(C)CC3)cn1  inactive
9  COC(=O)C1=C(C)NC(COC(N)=O)=C(C(=O)OC(C)C)C1c1cccc(Cl)c1Cl (centres undefined)  inactive

Answer for every listed entry: what is its outcome? The entries follow.
1. N#CSCC(=O)O
2. Cc1ccc(-c2ccccc2C#N)cc1
3. Cc1ccc2ccc(Cl)cc2n1
4. O=C1CC(c2ccc(Cl)cc2)CC(=O)N1

Given back:
1. inactive
2. inactive
3. inactive
4. inactive

----------
# Tested on: C33A
# experimental details: Primary qHTS to identify gynecologic anti-cancer compounds using libraries of approved drugs and bioactive compounds (AID 1345084); further: nearly all actives have a fitted effect of over 55% in size
# measurement context: Gynecologic cancer cell panel viability, ATPlite luminescence, 48 h; series mostly up to 57.5 µM
Records with an inconclusive call do not appear. Active and inactive are the calls of the source. The call rests on the fitted dose curve; in most records, active means well fitted cell-killing curve with a large enough effect; inconclusive means small, poorly fitted or top-dose-only effect, or effect the other way; inactive means flat fitted curve, though single readings scatter.
Write down the outcome that applies. Available outcomes: active, inactive

Illustrative cases are given below, each with its answer.
>>> print(df.to_string())
                                   molecule     group
0  NC(=O)C1(N2CCCCC2)CCN(CCCN2c3ccccc3CCc3ccc(Cl)cc32)CC1    active
1  Cc1cccc(N(C)C(=S)Oc2ccc3c(c2)C2CCC3C2)c1 (configuration not stated)  inactive
2                 COc1cc2nc(Cl)nc(N)c2cc1OC  inactive
3              Nc1ncnc2c1ncn2Cc1c(F)cccc1Cl  inactive

Asked: Check the results log: what was the call for Cc1c(F)cc2c(=O)c(C(=O)O)cn3c2c1CCC3C (configuration not stated) ?
Given back: inactive

Asked: Could you kindly confirm the outcome this assay logged for `N=C(N)c1ccc(OCCCOc2ccc(C(=N)N)cc2)cc1` ?
Given back: inactive

Asked: Each molecule tested received a call. Report the one for `CCOC(=O)c1ccc(OCCN2C[C@H](O)[C@@H](O)[C@H](O)[C@H]2CO)cc1` .
Given back: inactive

Asked: Status in this test for `C[C@H]1C[C@@H]2[C@H]([C@@H](O)C[C@@]3(C)[C@H]2CC[C@]3(O)C(=O)CO)[C@@]2(C)C=CC(=O)C=C12` ?
Given back: inactive

Asked: I'd appreciate the recorded outcome for `C1N2CN3CN1CN(C2)C3` from this test.
Given back: inactive

Asked: // return assay outcome for `Cc1cc(=O)oc2cc(O[C@@H]3SC[C@@H](O)[C@H](O)[C@H]3O)ccc12`
Given back: inactive

Asked: // param item: `O=C(NO)c1ccccc1` ; yields the recorded call
Given back: inactive

Asked: For `Cc1nc([N+](=O)[O-])cn1-c1ccc([N+](=O)[O-])cc1` , what call appears in the results of this test?
Given back: inactive

Asked: Called result for `CCS(=O)(=O)c1ccc(OC)c(C(=O)OC)c1`
Given back: inactive

Asked: What outcome does the record of this test show for `O=C1CCCc2c(O)cccc21` ?
Given back: inactive

Asked: What did the test return for `O=C1NC(c2cccc([N+](=O)[O-])c2)=CCN1c1ccccc1O` ?
Given back: inactive

Asked: What call does the record list for `C=CCNc1nc(NCC=C)nc(N2CCN(C(c3ccc(F)cc3)c3ccc(F)cc3)CC2)n1` ?
Given back: inactive

Asked: Record lookup: outcome of this test for CC1c2ccccc2CN1NC(=O)c1ccc(Cl)c(S(N)(=O)=O)c1 (configuration not stated) ?
Given back: inactive
